The origin of these recorded values is ChEMBL document CHEMBL3988442.

Each entry below lists one item and its recorded Percent Effect value.
# TARGET_DESC: Proteasome subunit beta (Trypanosoma cruzi)
# PROTOCOL_SUMMARY: Trypanosoma cruzi proteasome chymotrypsin-like activity (TcProtChymo) assay.
# Assay type: functional
# Set-up: scale not given: in the data most compounds retested in dose-response had high values
# MEASUREMENT_CONTEXT: 9.37 µM
# number only, unit % dropped from output

Some entries whose results are on file:
Cc1ccc(N2CC[C@H](OCC3CC3)[C@@H]2Cc2cnn(C)c2)nn1 = 15.1
COc1cccc2cc(CNC(C)(C)C(=O)N3CCC(O)CC3)oc12 = -6.14
CN1C(=O)CC(C(=O)O)C12CCN(Cc1ccc(Cl)cc1F)CC2 (stereo unspecified) = 10.1
O=S(=O)(CCN1CCOC(Cn2cncn2)C1)c1ccccc1 (stereo unspecified) = -0.0858
CC(C)Nc1nc(N2CCCC2)nc2c1CN(C(C)C)CC2 = 14.7

**Query** # get_value(readout='Percent Effect', item= COc1cccc(CCNS(=O)(=O)c2ccc(NC(C)=O)cc2)c1 )
**Result** 17
